Each entry below carries its reported pIC50.
measurement_target: Microsomal triglyceride transfer protein (MTP) from bovine liver (Bos taurus, UniProt P55156)
Sequence (P55156 12-887): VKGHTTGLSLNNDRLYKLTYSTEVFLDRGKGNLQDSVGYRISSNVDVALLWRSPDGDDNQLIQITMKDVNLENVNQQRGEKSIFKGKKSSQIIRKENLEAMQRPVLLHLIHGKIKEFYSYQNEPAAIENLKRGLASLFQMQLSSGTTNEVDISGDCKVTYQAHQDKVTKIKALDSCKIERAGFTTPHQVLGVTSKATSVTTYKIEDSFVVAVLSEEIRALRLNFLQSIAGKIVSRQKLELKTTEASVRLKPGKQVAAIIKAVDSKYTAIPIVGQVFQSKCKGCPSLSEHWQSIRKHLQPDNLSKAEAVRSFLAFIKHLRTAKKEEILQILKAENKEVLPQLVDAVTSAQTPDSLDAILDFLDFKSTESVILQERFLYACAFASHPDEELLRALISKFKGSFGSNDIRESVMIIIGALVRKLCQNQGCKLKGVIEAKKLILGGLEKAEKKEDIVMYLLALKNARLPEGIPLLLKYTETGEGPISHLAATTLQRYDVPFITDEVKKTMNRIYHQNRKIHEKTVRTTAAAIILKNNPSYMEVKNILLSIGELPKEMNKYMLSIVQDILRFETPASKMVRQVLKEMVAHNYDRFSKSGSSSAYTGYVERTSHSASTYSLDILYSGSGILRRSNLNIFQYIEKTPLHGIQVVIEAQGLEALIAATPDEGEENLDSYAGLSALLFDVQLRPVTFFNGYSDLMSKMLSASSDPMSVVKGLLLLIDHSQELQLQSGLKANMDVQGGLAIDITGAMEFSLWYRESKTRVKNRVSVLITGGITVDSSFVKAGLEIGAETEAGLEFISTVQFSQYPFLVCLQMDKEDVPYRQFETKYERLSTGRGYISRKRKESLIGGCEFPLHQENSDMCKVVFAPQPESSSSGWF
Sequence (P05307 21-510 partner): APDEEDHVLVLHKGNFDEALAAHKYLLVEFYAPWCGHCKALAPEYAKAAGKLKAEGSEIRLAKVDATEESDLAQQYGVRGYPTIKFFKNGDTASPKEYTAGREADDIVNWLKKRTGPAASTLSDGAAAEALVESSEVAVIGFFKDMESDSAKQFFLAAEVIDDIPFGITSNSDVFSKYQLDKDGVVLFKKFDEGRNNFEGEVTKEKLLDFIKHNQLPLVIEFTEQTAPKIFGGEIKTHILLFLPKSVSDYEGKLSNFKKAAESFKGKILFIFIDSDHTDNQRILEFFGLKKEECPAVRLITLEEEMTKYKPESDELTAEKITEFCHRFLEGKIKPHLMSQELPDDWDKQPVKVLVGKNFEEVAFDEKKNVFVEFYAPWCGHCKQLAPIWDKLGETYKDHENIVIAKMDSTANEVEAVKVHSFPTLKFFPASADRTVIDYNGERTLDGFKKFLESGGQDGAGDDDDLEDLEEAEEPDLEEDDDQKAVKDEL
pIC50: −log10 of the molar value.

Consider the reported pIC50 for these compounds:
>  <entry_smiles>
CCOC(=O)C(COC(=O)Oc1c(F)cc(NC(=O)c2ccc(C)cc2-c2ccc(C(F)(F)F)cc2)c(C(=O)N2CCOCC2)c1F)(C(=O)OCC)c1cccs1

>  <pIC50>
7.00 to 8.00

$$$$
>  <entry_smiles>
CCOC(=O)C(COC(=O)Cc1ccc(NC(=O)c2ccccc2-c2ccc(C(F)(F)F)cc2)c(OC(C)=O)c1)(C(=O)OCC)c1ccccc1

>  <pIC50>
> 8.00

$$$$
>  <entry_smiles>
CCOC(=O)C(CCC(=O)Oc1c(F)cc(NC(=O)c2ccccc2-c2ccc(C(F)(F)F)cc2)c(C(=O)N(C)C)c1F)(C(=O)OCC)c1ccccc1

>  <pIC50>
> 8.00

$$$$

Quick note, pIC50 for CCOC(=O)C(COC(=O)Oc1ccc(NC(=O)c2ccc(C)cc2-c2ccc(C(F)(F)F)cc2)c(C(=O)N(C)C)c1)(C(=O)OCC)c1ccccc1 landed at > 8.00

// pIC50 value for CCOC(=O)C(COC(=O)Oc1c(F)cc(NC(=O)c2cccc(F)c2-c2ccc(C(F)(F)F)cc2)c(C(=O)N(C)C)c1F)(C(=O)OCC)c1cccs1 : > 8.00

Per the record, CCOC(=O)C(COC(=O)Oc1c(F)cc(NC(=O)c2ccccc2-c2ccc(C(F)(F)F)cc2)c(C(=O)N(C)C)c1F)(C(=O)OCC)c1cccs1 has pIC50 of > 8.00

Record CCOC(=O)C(COC(=O)Oc1cc(C(=O)N(C)C)c(NC(=O)c2ccccc2-c2ccc(C(F)(F)F)cc2)cc1F)(C(=O)OCC)c1ccccc1 . Reported pIC50: > 8.00

Form field pIC50, entry CCOC(=O)C(COC(=O)Oc1ccc(NC(=O)c2cnc(N(C)C)nc2-c2ccc(C(F)(F)F)cc2)c(C(=O)N(C)C)c1)(C(=O)OCC)c1ccccc1 : > 8.00

pIC50 measured on CCOC(=O)C(COC(=O)Oc1c(F)cc(NC(=O)c2cccc(C)c2-c2ccc(C(F)(F)F)cc2)c(C(=O)N(C)C)c1F)(C(=O)OCC)c1cccs1 = > 8.00
